The values you see were collected from PubChem BioAssay (NCI).

# Tested on: ACHN renal
# runDescription: NCI-60 one-dose screen, 48 h (100 = growth as untreated, 0 = no growth, -100 = all killed)
# experimentalSetup: 10 µM unless noted
# Description: Growth inhibition of the ACHN human tumor cell line is measured as a screen for anti-cancer activity. Cells are grown in 96 well plates and exposed to the test compound for 48 hours. Compounds are tested at a single concentration, which is 10^-5 M for most compounds. The reported endpoint is percent growth (GI% or GIPRCNT), where numbers from 0 - 100% represent growth inhibition, and numbers from -100% - 0 represent cell death. For example, a value of 40 represents 60% growth inhibition. […]
Compounds without any hit were thinned out: in the full panel of roughly 83,000, 20% have a hit.
Assignment: determine reported growth for the given compounds.
# output: bare number, implied unit %

Exam item: # lookup: growth of CCCCCn1ncc(-c2c(O)c(O)cc3c(O)c(-c4c(C)cc5c(-c6cnn(CCCCC)n6)c(O)c(O)cc5c4O)c(C)cc23)n1
Marked response: 6.56

Exam item: # lookup: growth of O=C(Nc1ccc(-n2cc(-c3ccncc3)c(-c3ccc(O)c(Cl)c3)n2)cc1)c1ccc(Cl)c(Cl)c1
Marked response: 20.6

Exam item: # lookup: growth of O=C(NCCNc1nccc(-c2c(-c3cccc(O)c3)nc3sccn23)n1)c1cc(N2CCOCC2)cc(C(F)(F)F)c1
Marked response: 79.4

Exam item: # lookup: growth of C=C1C(=O)O[C@H]2[C@H]1CC/C(COC(=O)c1ccc3ccccc3c1)=C\CC[C@@]1(C)O[C@@H]21
Marked response: -100

###

# Tested on: UO-31 renal
# runDescription: NCI-60 one-dose screen, 48 h
# experimentalSetup: 10 µM unless noted
The panel holds about 83,000 compounds, 20% with a hit somewhere; the sample as a whole holds those more often. Activity calls are given as the source filed them. Rule for the calls: active = growth percent below 10; inactive = the rest.
Hello, when you answer, please use one of the following outcomes: True for active, False for inactive

Exam item: Tell me the assay call for S=c1n(CNc2ccc(Cl)nn2)nc(-c2cc(Cl)cc(Cl)c2Cl)n1/N=C/c1ccc(Cl)cc1 please.
Marked response: False

Exam item: Tell me the assay call for COc1ccc(Cn2cc(COc3ccc4c5ccnc(C)c5n(CCCc5ccccc5)c4c3)nn2)cc1 please.
Marked response: False

Exam item: Tell me the assay call for C=C1c2c(Cl)ccc(O)c2C(O)=C2C(=O)[C@]3(O)C(O)=C(C(N)=O)C(=O)[C@@H](N(C)C)[C@@H]3[C@@H](O)[C@H]12 please.
Marked response: True

Exam item: Tell me the assay call for COc1ccccc1S(=O)(=O)Nc1ccc2c3c(cc(-c4cnn(C5CC5)c4)nc13)C(=O)N2C please.
Marked response: False

###

# Test system: MALME-3M melanoma
# runDescription: NCI-60 one-dose screen, 48 h (100 = growth as untreated, 0 = no growth, -100 = all killed)
# experimentalSetup: 10 µM unless noted
This is part of a sample that, as a whole, favours compounds with a hit. Of some 83,000 tested, about 20% had one in any assay.
Assignment: determine reported growth for the given compounds.
# output: bare number, implied unit %

Exam item: # lookup: growth of Cc1nc(-c2ccc(Cl)cc2)ccc1NC(=O)Nc1cccc(C(F)(F)F)c1
Marked response: 126

Exam item: # lookup: growth of CN1CCN(Cn2nc(-c3cc(Cl)cc(Cl)c3Cl)n(/N=C/c3ccc(Cl)cc3)c2=S)CC1
Marked response: 101

Exam item: # lookup: growth of COc1ccc2c(c1)/C(=C/c1c(-c3cc(OC)c(OC)c(OC)c3Br)nc3sccn13)C(=O)N2
Marked response: 62.1

Exam item: # lookup: growth of COc1ccc2c(c1)OC(N)=C(C#N)C2c1ccc(F)c(F)c1 (centres undefined)
Marked response: 78.4

Exam item: # lookup: growth of O=C(c1cc(-c2ccc(Cl)cc2)nc2ccccc12)N1N=C(c2ccccc2)CC1c1cc(-c2ccccc2)nn1-c1ccccc1 (centres undefined)
Marked response: 86.1

Exam item: # lookup: growth of Cc1cn(-c2cc(C(=O)Nc3cccc(-n4ccc5c(NC(=O)c6ccccc6)nccc54)c3)cc(C(F)(F)F)c2)cn1
Marked response: 25.2

Exam item: # lookup: growth of O=C(O)c1cc2ccccc2cc1Nc1ccccc1
Marked response: 111

Exam item: # lookup: growth of Cc1nccc2c3ccc(OCc4cn(-c5ccc(Br)cc5)nn4)cc3n(CCCc3ccccc3)c12
Marked response: -61.1

Exam item: # lookup: growth of CCCN1C(=O)CSC1=Nc1ccc2cc3ccc(N=C4SCC(=O)N4CCC)cc3nc2c1
Marked response: 33.5
